Sourced from the supplement of paper PMC10567573

protein stability index values, listed per item
B1: RPAIN (parent)
chain: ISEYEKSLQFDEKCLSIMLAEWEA

# Variants of: B1
# EXPERIMENTAL_PROTOCOL: protein stability index of a GFP-peptide fusion (GPS, HEK-293T) (PSI 1-6); higher = more stable;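 further: lentivirally expressed fusions sorted by FACS into six bins by GFP to DsRed ratio, PSI derived from sequencing read proportions per bin multiplied by bin number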
# TEST_PARAMETERS: c terminus: a fixed tail appended
Just the number, please, no unit attached.

Before answering, review these 10 worked examples.
>>> experimental_value("L8V")
2.22
>>> experimental_value("L15I")
3.52
>>> experimental_value("D11H")
1.68
>>> experimental_value("S16Q")
2.11
>>> experimental_value("A24I")
1.96
>>> experimental_value("M18N")
2.13
>>> experimental_value("I17W")
1.47
>>> experimental_value("K13Y")
3.37
>>> experimental_value("S16T")
2.1
>>> experimental_value("K6N")
1.91

query: Using the record for `E12I` , report its protein stability index.
result: 1.67

query: Using the record for `C14K` , report its protein stability index.
result: 1.59

query: Using the record for `E5I` , report its protein stability index.
result: 1.75

query: Using the record for `I17V` , report its protein stability index.
result: 2.38

query: Using the record for `S16N` , report its protein stability index.
result: 1.37

query: Using the record for `S7W` , report its protein stability index.
result: 2

query: Using the record for `W22K` , report its protein stability index.
result: 4.47

query: Using the record for `E3N` , report its protein stability index.
result: 3.69

query: Using the record for `A24N` , report its protein stability index.
result: 2.32

query: Using the record for `E5T` , report its protein stability index.
result: 1.58

query: Using the record for `K13P` , report its protein stability index.
result: 2.72

query: Using the record for `E23I` , report its protein stability index.
result: 2.4

query: Using the record for `E3C` , report its protein stability index.
result: 1.44

query: Using the record for `W22L` , report its protein stability index.
result: 2.15

query: Using the record for `S2E` , report its protein stability index.
result: 1.16
